# collection of pIC50 values tested on UniProt P00915
# Sequence (P00915 whole entry): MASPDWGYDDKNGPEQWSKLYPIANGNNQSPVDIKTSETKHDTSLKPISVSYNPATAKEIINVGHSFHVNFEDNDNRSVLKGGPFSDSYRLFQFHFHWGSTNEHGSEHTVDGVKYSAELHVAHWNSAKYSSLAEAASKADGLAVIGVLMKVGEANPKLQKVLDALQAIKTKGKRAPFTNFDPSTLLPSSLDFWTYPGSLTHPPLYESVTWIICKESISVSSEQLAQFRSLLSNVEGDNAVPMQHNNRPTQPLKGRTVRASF
pIC50: −log10 of the molar value.
Measured attribute: pIC50

# Record smiles, Experimental value
data = [
    ("Cc1ccc(S(=O)(=O)N(C)c2ccccc2)cc1", "< 4.30"),
    ("Cc1ccc(S(=O)(=O)Nc2ccccc2)cc1", "< 4.30"),
    ("COc1ccc(S(=O)(=O)Nc2ccccc2)cc1OC", "< 4.30"),
]

* * *

Experimental system: Carbonic anhydrase 2 (Homo sapiens, UniProt P00918)
Protocol text: Inhibition of CA-2 (unknown origin) after 15 mins by CO2 hydration assay
Measured attribute: IC50 (µM)

# Compound, Experimental system, Censoring qualifier, Experimental value
records = [
    ("Cc1ccc(S(=O)(=O)Nc2ccccc2)cc1", "Carbonic anhydrase 2 (Homo sapiens, UniProt P00918)", ">", 50),
    ("CCCC(C)NS(=O)(=O)c1ccc(C)cc1 (stereo not given)", "Carbonic anhydrase 2 (Homo sapiens, UniProt P00918)", "=", 8.07),
    ("Cc1ccc(S(=O)(=O)Nc2ccccc2-c2ccccc2)cc1", "Carbonic anhydrase 2 (Homo sapiens, UniProt P00918)", "=", 5.1),
    ("Cc1ccc(S(=O)(=O)NCc2ccccc2)cc1", "Carbonic anhydrase 2 (Homo sapiens, UniProt P00918)", ">", 50),
    ("Cc1ccc(S(=O)(=O)N(C)c2ccccc2)cc1", "Carbonic anhydrase 2 (Homo sapiens, UniProt P00918)", ">", 50),
]
